# subject_of_test: T1, 006 PSMA Fab (biotinylated (site not given))
# T1 construct: Biotinylated PSMA Fab captured on neutravidin coated plates for the clonal phage ELISA; also called Anti-PSMA Fab
# test_summary: clonal phage ELISA on plate-bound PSMA Fab, competitor: PSMA antigen pre-incubated in the wells
Where no end group is shown, it is not given here.
Assign Fulfilled to entries whose Phage binding ELISA signal, Anti-PSMA Fab in presence of PSMA meets or exceeds 0.08; assign Not fulfilled to the rest.

binder	classification
GEKWCIPEWMCQDV (cysteine pairing not given here; also: displayed on phage as fusion to pIII, pIII and linker sequence not given here, not shown: fused to pIII of the bacteriophage) [Phage-2499]	Not fulfilled

(Q) Is it the case that LGKWCIPDWMCSGL (cysteine pairing not given here; also: displayed on phage as fusion to pIII, pIII and linker sequence not given here, not shown: fused to pIII of the bacteriophage) [Phage-2505] has Phage binding ELISA signal, Anti-PSMA Fab in presence of PSMA reaching or exceeding 0.08?
(A) Fulfilled

(Q) Is it the case that VERLCKPLWMCQER (cysteine pairing not given here; also: fused to phage pIII, linker and fusion site not given here, not shown: fused to pIII of the bacteriophage) [Phage-2507] has Phage binding ELISA signal, Anti-PSMA Fab in presence of PSMA reaching or exceeding 0.08?
(A) Not fulfilled

(Q) Is it the case that HPSWCTPAWMCQGF (cysteine pairing not given here; also: fused to phage pIII, linker and fusion site not given here, not shown: fused to pIII of the bacteriophage) [Phage-2508] has Phage binding ELISA signal, Anti-PSMA Fab in presence of PSMA reaching or exceeding 0.08?
(A) Fulfilled

(Q) Is it the case that WPKLCTPPWMCTVD (cysteine pairing not given here; also: displayed on phage as fusion to pIII, pIII and linker sequence not given here, not shown: fused to pIII of the bacteriophage) [Phage-2497] has Phage binding ELISA signal, Anti-PSMA Fab in presence of PSMA reaching or exceeding 0.08?
(A) Not fulfilled

(Q) Is it the case that SDKWCIPVWMCEES (cysteine pairing not given here; also: displayed on phage as fusion to pIII, pIII and linker sequence not given here, not shown: fused to pIII of the bacteriophage) [Phage-2501] has Phage binding ELISA signal, Anti-PSMA Fab in presence of PSMA reaching or exceeding 0.08?
(A) Fulfilled
